Test: Acute toxicity (LD50)
Format: in vivo
Settings: mouse, in vivo, ip, intraperitoneal administration; 7 days
recordedEndpoint: LD50 at 168 h (mg/kg)
Reply numerically in mg/kg, unit not repeated.

Some compounds with known LD50 at 168 h results, for comparison:
> print(dat)
                               recordsmiles  val
1  CN1C(=CC=C(C=Cc2sc3ccccc3[n+]2C)c2sc3ccccc3[n+]2C)Sc2ccccc21   40
2  CN1C=CC(=CC=C(C=Cc2cc[n+](C)c3ccccc23)c2cc[n+](C)c3ccccc23)c2ccccc21   65
3  CCN1C=CC(=CC=C(C=Cc2cc[n+](CC)c3ccccc23)c2cc[n+](CC)c3ccccc23)c2ccccc21   34

Kindly consider the entry below.
In: Need LD50 at 168 h, item CCCCN1C=CC(=CC=C(C=Cc2cc[n+](CCCC)c3ccccc23)c2cc[n+](CCCC)c3ccccc23)c2ccccc21
Out: 84

---

System: ddy mice
Assay: Acute toxicity (LD50)
Type: in vivo
Settings: intraperitoneal administration; 7 days; 10080 min
Recorded measurements of LD50, one per entry
Unit mg/kg body weight implied. Number only.

// solved cases for LD50 follow
> print(dat)
                                   compound  recordedendpoint  val
1  CCN1C=CC(=CC=C(C=Cc2cc[n+](CC)c3ccccc23)c2cc[n+](CC)c3ccccc23)c2ccccc21 [compound 5]              LD50   28
2  CCN1C=CC(=CC=C(C=Cc2cc[n+](CC)c3ccccc23)c2cc[n+](CC)c3ccccc23)c2ccccc21 [compound 3]              LD50   31
3  CCN1C=CC(=CC=C(C=Cc2cc[n+](CC)c3ccccc23)c2cc[n+](CC)c3ccccc23)c2ccccc21 [compound 4]              LD50   37

In: Quick check: LD50 on ddy mice, item CCN1C=CC(=CC=C(C=Cc2cc[n+](CC)c3ccccc23)c2cc[n+](CC)c3ccccc23)c2ccccc21 [compound 2] ?
Out: 30

Values from patent US5491151A
